Values compiled from patent US20220000832A1.

Test system: melb-a cells (melanoblasts)
Experiment description: cells
Type: cell-based
Experimental conditions: 24 h, 1 μM; read-out: Increase of cell migration rate compared to negative control
Please go through the items and note down their fold induction at 1 µM.

Can you look up fold induction at 1 µM on melb-a cells (melanoblasts) for COC(=O)c1ccc(C(OC)OC)o1 ?
~1.9

And then COC(=O)c1ccc(C=O)o1 [Example 10, methyl 5-formylfuran-2-carboxylate] , what is it?
~1.9

Then what about the molecule O=Cc1ccc(CO)o1 [Example 1, 5-(hydroxymethyl)furan-2-carbaldehyde] ?
2

Moving on to CC(O)c1ccc(C=O)o1 (stereo not shown) [Example 18, 5-(1-hydroxyethyl)furan-2-carbaldehyde]
~1.7

* * *

System: Melb-a (melanoblast) cells
Experiment description: cells
Type: cell-based
Readout label: Melanin content compared to negative control (in words)

| Compound | Result |
| --- | --- |
| O=Cc1ccc(CO)o1 [Example 1, 5-(hydroxymethyl)furan-2-carbaldehyde] | gradually increased |
| COC(=O)c1ccc(C(OC)OC)o1 [Example 9] | gradually increased |
| COC(=O)c1ccc(C=O)o1 [Example 10, methyl 5-formylfuran-2-carboxylate] | gradually increased |
